- TGT: UniProt:Q07969
- Sequence (Q07969 whole entry): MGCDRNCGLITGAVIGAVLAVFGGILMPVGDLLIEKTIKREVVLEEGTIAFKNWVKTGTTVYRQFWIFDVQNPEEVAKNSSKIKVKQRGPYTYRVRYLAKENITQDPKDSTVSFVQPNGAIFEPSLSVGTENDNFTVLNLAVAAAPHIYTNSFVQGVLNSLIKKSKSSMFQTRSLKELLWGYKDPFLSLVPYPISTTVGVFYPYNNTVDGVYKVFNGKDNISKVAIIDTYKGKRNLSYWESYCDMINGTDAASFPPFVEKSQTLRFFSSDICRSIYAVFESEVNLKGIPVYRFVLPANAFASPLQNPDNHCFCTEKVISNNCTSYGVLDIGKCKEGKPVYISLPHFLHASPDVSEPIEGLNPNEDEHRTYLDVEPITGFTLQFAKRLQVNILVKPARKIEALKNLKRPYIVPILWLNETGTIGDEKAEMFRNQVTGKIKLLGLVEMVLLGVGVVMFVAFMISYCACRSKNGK
- ASSAY INFO: Displacement of photoactivatable [125I]-Tyr-Bpa-Ala-Hexarelin from CD36 in Sprague-Dawley rat cardiac membranes incubated for 60 mins by densitometry
Starred links: 1 amine or outer side, 2 acyl side, 3 side chain; linkers in the order of their positions; H or OH if unused. Non-standard residues stand in square brackets, D forms with d. Residues, ends and D or L forms follow the SMILES beside them. azaPhe = O=C(N(Cc1ccccc1)N[*:1])[*:2]; azaPro = O=C(N1CCCN1[*:1])[*:2]
Please go through the items and note down their IC50.

Ask: Field request: IC50 | item: C[C@H](NC(=O)[C@@H](C)NC(=O)[C@@H](N)Cc1cnc[nH]1)C(=O)NN(Cc1ccccc1)C(=O)N[C@H](Cc1ccccc1)C(=O)N[C@@H](CCCCN)C(N)=O (H-H[dA]A[azaPhe][dF]K-NH2)
Reply: > 10 µM

Ask: Would you kindly share the measured IC50 for C[C@H](NC(=O)[C@@H](Cc1c[nH]c2ccccc12)NC(=O)[C@@H](N)Cc1cnc[nH]1)C(=O)N1CCCN1C(=O)N[C@H](Cc1ccccc1)C(=O)N[C@@H](CCCCN)C(N)=O (H-H[dW]A[azaPro][dF]K-NH2) ?
Reply: > 10 µM

Ask: Which IC50 reading was recorded for the compound `NCCCC[C@H](NC(=O)[C@@H](Cc1ccccc1)NC(=O)[C@@H]1CCCN1C(=O)NNC(=O)[C@@H](Cc1c[nH]c2ccccc12)NC(=O)[C@@H](N)Cc1cnc[nH]1)C(N)=O` ?
Reply: > 10 µM
